System: OVCAR-4 ovarian
test-summary: NCI tumour cell line growth inhibition, 48 h
Documented TGI across a set of compounds

CCOC(C)O[C@H]1C(=O)OCC1(C)C (stereo partly drawn) = > 100 µM
NS(=O)(=O)c1ccc(-c2ccc3c(NC(=O)C4CC4)n[nH]c3c2)cc1 = > 25 µM
Cc1cc2ncnn2cc1Nc1ncc2c(n1)n(C1CCOCC1)c(=O)n2C = 42.9 µM
CCOC(=O)C(=O)Nc1ccccc1CC = > 100 µM
C[C@@H](c1ccccc1)n1c(N)c(C#N)c2ccc([N+](=O)[O-])cc2c1=O = 35.7 µM
COc1cc(-c2nc3ccccn3c2/N=C/c2cc(Br)cc(Br)c2O)ccc1O = 61.3 µM
CCOC(=O)N[C@@H]1C(CC(=O)OC)O[C@H]2OC(C)(C)O[C@H]21 (stereo partly drawn) = > 100 µM

Note: attention shifts to another entry.
*Q* Entry COc1cc2oc(-c3ccc(O)cc3)c(OC)c(=O)c2c(O)c1OC : reported TGI = ?
*A* > 100 µM

* * *

Tested on: HL-60(TB) leukemia
test-summary: NCI tumour cell line growth inhibition, 48 h
quantity-kind: TGI

Some solved entries appear below for comparison.
CCCC(CCC)NCC(O)c1cc(-c2ccc(C(F)(F)F)cc2)nc(C(F)(F)F)c1 (stereo unspecified) = 3.97 µM
O=C1NC2O[C@H](CNC(=O)c3cc(Br)c[nH]3)CC2(O)N1 (mixture of isomers) = > 100 µM
C[Si](C)(C)OC1CC(=O)OC1n1cc(F)c(=O)[nH]c1=O (stereo unspecified) = > 100 µM
COC(=O)C12CC3CC(CC(C(=O)O)(C3)C1)C2 = > 100 µM

*Q* Entry O=c1cc(N2CCCC2)[nH]c(=O)n1-c1cccc(Cl)c1 : reported TGI = ?
*A* > 100 µM

* * *

Tested on: PC-3 prostate
test-summary: NCI tumour cell line growth inhibition, 48 h
quantity-kind: TGI

CCOC(=O)c1cc2c3ccn(Cc4ccccc4)c3c3c(C)[nH]oc3c2n1 = > 100 µM
c1ccc(Sc2ccc(Cc3nc4cc5ccccc5cc4[nH]3)cc2)cc1 = > 64.3 µM
C/C(=N\Nc1ccc(Cl)cn1)c1ccc2ccccc2n1 = > 100 µM
O=S(=O)(c1ccc(NC(=S)NC23CC4CC(CC(C4)C2)C3)cc1)N1CCCCC1 = 8.94 µM
CC(=O)ONC(C(=O)C(C)(C)C)C(=O)C(C)(C)C = > 100 µM

Note: attention shifts to another entry.
*Q* # returns recorded TGI (system: PC-3 prostate) for Oc1c(N2CCOCC2)cc(-c2cc(N3CCOCC3)c(O)c3ccccc23)c2ccccc12
*A* 14.6 µM

* * *

Documented TGI across a set of compounds
Tested on: CCRF-CEM leukemia
test-summary: NCI tumour cell line growth inhibition, 48 h
Give just the numeric value; µM need not be written.

Some solved entries appear below for comparison.
COCCCNc1nc(N)c(C#N)c(C#N)c1C#N = 6.67
COCc1nc2c(OC)c(-c3nc4nc(N5CCN(C)CC5)ccc4[nH]3)cc(OC)c2n1C = 45.6
CCOC(=O)c1ccc(NCc2ccc3oc(=O)c(-c4ccccc4)nc3c2)cc1 = 22.6
COc1ccc2c3c([nH]c2c1[N+](=O)[O-])C(C)N(C)CC3 (configuration not stated) = 95.2
O=C(c1ccco1)N(C(=S)OCCOc1ccccc1)c1ccccc1 = 46.5
O=C1c2ccsc2C(=O)c2sc(CO)cc21 = 1.35

*Q* Entry Nc1ccccc1C#C/C=C\C#Cc1ccccc1N : reported TGI = ?
*A* 32.4

*Q* Request: CCC(=O)Oc1ccc2c(c1)c(=O)c1c(NCCCN(C)C)ccc3nnn2c31
*A* 2.01

*Q* Request: CCCCCCCCCCCC(=O)OCC(C[As](=O)(O)O)OC(=O)CCCCCCCCCCC (configuration not stated)
*A* 30.8

* * *

Documented TGI across a set of compounds
System: HOP-92 NSCLC
test-summary: NCI tumour cell line growth inhibition, 48 h

CNC(=S)/N=C(\N)N(C)C = > 100 µM
CCN(CC)C1CC(O[C@H]2C[C@](O)(C(=O)CO)Cc3c(O)c4c(c(O)c32)C(=O)c2c(OC)cccc2C4=O)OC(C)C1O (stereo partly specified) = 0.268 µM
O=C1NC(=S)NC(=O)C1C(c1ccc(O)cc1)C1C(=O)NC(=S)NC1=O = > 100 µM
CSc1nnc(SC)nn1 = 14.8 µM
CN1CCN(CCCNc2nc3ccc(Oc4ccc(NC(=O)Nc5cc(C(F)(F)F)ccc5F)cc4)cc3[nH]2)CC1 = 12.1 µM
CCOC(=O)C1CCN(S(=O)(=O)/N=C2/NC(=O)NC2=C(Cl)Cl)CC1 = 3.29 µM
CCCCCCCCCCCC(=O)OCC(C[As](=O)(O)O)OC(=O)CCCCCCCCCCC (stereo unspecified) = 4.29 µM
CCOC(=O)Cn1c(=O)ccn(COCCO)c1=O = > 100 µM
CN1CCc2nc(N)nc(-c3nc(N)nc4c3CN(C)CC4)c2C1 = > 100 µM
CCOC(=O)CCC(=O)C1c2cccc(O)c2C(=O)c2c(O)cc(C)cc21 (stereo unspecified) = 3.04 µM

*Q* Entry CC1=C(/C=C/Cl)CC(Cl)C(C)(Cl)C1 (stereo unspecified) : reported TGI = ?
*A* > 100 µM

*Q* Request: Cc1ccc2c3c1O[C@H]1c4[nH]c5ccccc5c4C[C@@]4(O)[C@@H](C2)N(CC2CC2)CC[C@]314
*A* 27.5 µM

*Q* Request: COc1cc2ncnc(-n3ncc4cc(NC(=O)Nc5ccccc5)ccc43)c2cc1OC
*A* 4.15 µM

*Q* Request: CCCN(CCC)C(=O)c1c([N+](=O)[O-])cc(C(F)(F)F)cc1[N+](=O)[O-]
*A* 93.3 µM

*Q* Request: Cc1cc(C(=O)Nc2ccc3cc(CN4CCOCC4)ccc3n2)c(C)n1-c1ccccc1
*A* 40.3 µM

* * *

Documented log10 TGI across a set of molecules
Tested on: HCC-2998 colon
test-summary: NCI tumour cell line growth inhibition, 48 h
Could you please treat all values as log10 of TGI in µM?

CCCCC1Cc2ccccc2-c2nc3ccccc3n21 (stereo not drawn) = 1.44

*Q* Entry COc1ccc(-c2nc3ccccn3c2/C=C/C(=O)c2cc(OC)c(OC)c(OC)c2)cc1OC : reported log10 TGI = ?
*A* 1.18

*Q* Request: CN1CCN(CCCNc2nc3ccc(Oc4ccc(NC(=O)Nc5cc(C(F)(F)F)ccc5F)cc4)cc3[nH]2)CC1
*A* 0.91

* * *

Tested on: K-562 leukemia
test-summary: NCI tumour cell line growth inhibition, 48 h; in the data active means GI50 below about 0.43 µM; inactive means the rest
Parameter call: string, one of active, inactive

COc1ccccc1CNCCCN1C(=O)c2ccc3c4c(ccc(c24)C1=O)C(=O)N(CCCNCCNCCCN)C3=O = inactive

*Q* Any idea what this test logged for COc1ccc(-c2[nH]c3ccc(OC)cc3c2/C=C(\C#N)S(=O)(=O)c2ccccc2)cc1 ?
*A* inactive

*Q* Request: CC1(C)C(=O)/C(=C\c2cccnc2)C[C@]2(C)[C@H]3CC[C@@H]4[C@H]5[C@H](C(=O)/C=C/c6cccnc6)CC[C@]5(C(=O)O)CC[C@@]4(C)[C@]3(C)CC[C@@H]12
*A* inactive

*Q* Request: CN1CCN(CCCNc2nc3ccc(Oc4ccc(NC(=O)Nc5cc(C(F)(F)F)ccc5F)cc4)cc3[nH]2)CC1
*A* inactive

*Q* Request: O=C1c2cccnc2-c2nc(-c3ccc(Cl)cc3)cc3c2c1nc1ccccc13
*A* inactive

*Q* Request: CCCC(CCC)NCC(O)c1cc(-c2ccc(C(F)(F)F)cc2)nc(C(F)(F)F)c1 (configuration not stated)
*A* inactive

* * *

System: 786-0 renal
test-summary: NCI tumour cell line growth inhibition, 48 h
quantity-kind: TGI

Some solved entries appear below for comparison.
CCCCCCCCCCCC(=O)OCC(C[As](=O)(O)O)OC(=O)CCCCCCCCCCC (stereo unspecified) = 26.7 µM
CC1(C)C[C@@H]2C1CCC1(C)CC2(O)CC[C@H]1O (stereo partly specified) = > 100 µM

*Q* # returns recorded TGI (system: 786-0 renal) for COC(=O)C(Cc1nc2ccccc2[nH]c1=O)C(NO)C(=O)Nc1c(Cl)cc([N+](=O)[O-])cc1Cl (stereo unspecified)
*A* > 100 µM

*Q* Request: CN(C)CCNc1ccc(CO)c2oc3ccc(O)cc3c(=O)c12
*A* 46.1 µM

*Q* Request: CCOC(=O)C1CCN(S(=O)(=O)/N=C2/NC(=O)NC2=C(Cl)Cl)CC1
*A* 6.64 µM

*Q* Request: COC(=O)C1=CS/C(=C2\S[C@@H]3[C@H](S2)[C@H]2C=C[C@@H]3C2)S1
*A* > 100 µM

*Q* Request: CCOC(=O)N[C@@H]1C(CC(=O)OC)O[C@H]2OC(C)(C)O[C@H]21 (stereo partly specified)
*A* > 100 µM

*Q* Request: CCOC(=O)CC(C)C1(C(=O)OCC)CCCCC1=O (stereo unspecified)
*A* > 100 µM

*Q* Request: COc1ccc2c3c([nH]c2c1[N+](=O)[O-])C(C)N(C)CC3 (stereo unspecified)
*A* > 100 µM

*Q* Request: CC1(C)/C(=C/N=O)N(O)C(C)(C)N1O
*A* > 100 µM

*Q* Request: O=C(c1ccco1)N(C(=S)OCCOc1ccccc1)c1ccccc1
*A* 38.3 µM
